# MEASURED TARGET: OR1G1 (Homo sapiens) (UniProt P47890)
# Sequence (P47890 whole entry): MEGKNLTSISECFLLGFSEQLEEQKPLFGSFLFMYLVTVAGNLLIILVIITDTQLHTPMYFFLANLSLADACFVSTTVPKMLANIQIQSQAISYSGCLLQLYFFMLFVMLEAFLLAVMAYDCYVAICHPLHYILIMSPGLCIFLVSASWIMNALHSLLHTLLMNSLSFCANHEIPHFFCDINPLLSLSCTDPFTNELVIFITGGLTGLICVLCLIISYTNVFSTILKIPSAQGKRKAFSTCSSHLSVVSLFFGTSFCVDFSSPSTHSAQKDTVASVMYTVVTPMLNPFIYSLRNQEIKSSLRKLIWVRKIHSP
# RUN CONDITIONS: stereoisomer not certain
METRIC NAME: odorant receptor agonist call

Some entries whose results are on file:
molecule=CCCCCCC(=O)OCC val=inactive
molecule="CC1=C(O)C(=O)C(C)O1 (stereo not drawn)" val=inactive
molecule="CCCCCCC(C)O (stereo not drawn)" val=active
molecule="CCCCCC(S)C(C)CO (stereo not drawn)" val=inactive
molecule=CCCCCCCC(=O)[O-].[H+] val=inactive

QUERY: Look up odorant receptor agonist call: CC(=O)c1c(C)c([N+](=O)[O-])c(C(C)(C)C)c([N+](=O)[O-])c1C
RESULT: inactive

QUERY: Look up odorant receptor agonist call: CCCCCCCCC(=O)O
RESULT: active

QUERY: Look up odorant receptor agonist call: CCCCCCCCC(OC(C)=O)OC(C)=O
RESULT: active

====

# MEASURED TARGET: OR1A1 (Homo sapiens) (UniProt Q9P1Q5)
# Sequence (Q9P1Q5 whole entry): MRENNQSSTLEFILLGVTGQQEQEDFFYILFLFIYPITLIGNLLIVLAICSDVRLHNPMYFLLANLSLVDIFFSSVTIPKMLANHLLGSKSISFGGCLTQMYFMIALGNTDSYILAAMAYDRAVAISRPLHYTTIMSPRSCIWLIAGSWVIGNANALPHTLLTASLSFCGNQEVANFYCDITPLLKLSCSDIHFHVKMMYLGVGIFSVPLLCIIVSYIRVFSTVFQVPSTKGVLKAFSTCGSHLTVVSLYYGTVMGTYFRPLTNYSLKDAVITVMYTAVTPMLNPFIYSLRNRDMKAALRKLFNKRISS
# RUN CONDITIONS: stereoisomer not certain
Result category, one only: active, inactive

// below: answered molecules
molecule=OCC=Cc1ccccc1 measured_target="OR1A1 (Homo sapiens) (UniProt Q9P1Q5)" cat=inactive
molecule=CCCCCCCCCS measured_target="OR1A1 (Homo sapiens) (UniProt Q9P1Q5)" cat=active
molecule="CC(CO)CS (configuration not stated)" measured_target="OR1A1 (Homo sapiens) (UniProt Q9P1Q5)" cat=inactive
molecule=CCCSSSC measured_target="OR1A1 (Homo sapiens) (UniProt Q9P1Q5)" cat=inactive

Now consider a different molecule.
QUERY: Identify the outcome logged in this assay for the molecule shown: CC1=C(O)C(=O)OC1C (configuration not stated)
RESULT: inactive

====

# MEASURED TARGET: OR7E24 (Homo sapiens)
# Sequence (whole entry): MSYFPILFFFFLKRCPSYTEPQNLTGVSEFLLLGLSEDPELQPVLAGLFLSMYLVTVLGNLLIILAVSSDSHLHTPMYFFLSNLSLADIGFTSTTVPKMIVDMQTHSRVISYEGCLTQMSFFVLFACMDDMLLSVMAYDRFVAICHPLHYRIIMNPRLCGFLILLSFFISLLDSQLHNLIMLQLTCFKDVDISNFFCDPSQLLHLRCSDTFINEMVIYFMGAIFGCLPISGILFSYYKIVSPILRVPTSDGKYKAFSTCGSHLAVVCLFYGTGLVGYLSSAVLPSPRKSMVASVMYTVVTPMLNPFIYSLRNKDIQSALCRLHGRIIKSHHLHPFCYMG
# RUN CONDITIONS: stereoisomer not certain
METRIC NAME: odorant receptor agonist call

Some entries whose results are on file:
compound="CC1=C(O)C(=O)OC1C (stereo unspecified)" val=inactive
compound=CC(=O)c1c(C)c([N+](=O)[O-])c(C(C)(C)C)c([N+](=O)[O-])c1C val=inactive
compound="CCCC(S)CCOC(C)=O (stereo unspecified)" val=inactive
compound="CC1=C(O)C(=O)C(C)O1 (stereo unspecified)" val=inactive
compound="CCCCCC(=O)C(C)C(C)=O (stereo unspecified)" val=inactive

Consider the record given below.
QUERY: Look up odorant receptor agonist call: Cc1cnc(C)c(C)n1
RESULT: inactive

====

# MEASURED TARGET: UniProt Q8VF24
# Sequence (whole entry): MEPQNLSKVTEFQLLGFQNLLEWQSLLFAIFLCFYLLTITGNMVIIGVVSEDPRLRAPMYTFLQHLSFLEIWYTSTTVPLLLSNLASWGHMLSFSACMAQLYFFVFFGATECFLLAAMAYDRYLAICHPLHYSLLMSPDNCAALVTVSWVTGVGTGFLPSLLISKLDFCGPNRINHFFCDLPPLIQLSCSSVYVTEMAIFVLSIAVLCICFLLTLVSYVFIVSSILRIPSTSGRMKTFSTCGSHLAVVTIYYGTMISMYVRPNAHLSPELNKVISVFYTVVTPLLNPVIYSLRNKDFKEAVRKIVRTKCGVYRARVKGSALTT
# RUN CONDITIONS: stereoisomer not certain
Result category, one only: true (1) = active, false (0) = inactive

compound=CCCCC(=O)O cat="false (0)"
compound="C=C(C)C1CCC(C)C(=O)C1 (configuration not stated)" cat="false (0)"
compound=CCC(=O)O cat="false (0)"
compound=CCCCCC=O cat="false (0)"

QUERY: Identify the outcome logged in this assay for the compound shown: CCCCC(=O)CC
RESULT: false (0)

QUERY: Identify the outcome logged in this assay for the compound shown: CC(=O)OCc1ccccc1
RESULT: false (0)
